test: yeast display, Sf9 membrane polyspecificity reagent, FACS + sequencing; frameworks hold sequencing errors

[
  {
    "seq.string": "QVQLVESGGGLVQAGGSLRLSCAASGRTIYQYAMGWYRQAPGKERELVAAISRGGSTNYADSLKGRFTISRDNAKNTVYLQMNSLKPEDTAVYYCASWYKFLSLKRLYERDYWGQGTQVTVSS",
    "polyreactivity (PSR sort gate)": "high polyreactivity"
  },
  {
    "seq.string": "QVQLVESGGGLVQAGRSLRLSCAASGFIFSGNVMGWYRQAPGKERELVAAITSSGGSTYYADSVKGRFTISRDNAKNTVYLQMNSLKPEDTAVYYCATRYGGRYYWGQGTQVTVSS",
    "polyreactivity (PSR sort gate)": "high polyreactivity"
  },
  {
    "seq.string": "QVQLVESGGGLVQAGGSLRLSCAASGLTFVRYAMGWYRQAPGKERELVAVISYSGARTYYADSVKGRFTISRDNAKNTVYLQMNSLKPEDTAVYYCAARQYTTGKYDSWGQGTQVTVSS",
    "polyreactivity (PSR sort gate)": "high polyreactivity"
  }
]

----------
assay: yeast display, Sf9 membrane polyspecificity reagent, FACS + sequencing; frameworks hold sequencing errors

[
  {
    "seq.string": "QVQLVESGGGLVQAGGSLRLSCGASGSTFRLYALGWYRQAPGNEWAFVAAISFRGGSTYYADSVKGRFTISRDNAQNTVYLQMNSLKPEDTAVYYCAAEVGTGGVRTPRYEYWGQGTQVTVSS",
    "polyreactivity (PSR sort gate)": "high polyreactivity"
  },
  {
    "seq.string": "QVQLVESGGGLVQAGGSLRLSCAASGSTFVGYAMGWYRQAPGKERELVAAISWRGTRTYYADSVKGRFTISRDNAKNTVYLQMNSLKPEDTAVYYCAAVARQGKGYDYWGQGTQVTVSS",
    "polyreactivity (PSR sort gate)": "high polyreactivity"
  },
  {
    "seq.string": "QVQLVESGAGLVKAGGSLRLSCAASGRTLTGNDMGWYRQAPGKERELVAAITARGGSTYYADSVKGRFTISRDNAKNTVYLQMNSLKPEDTAVYYGATLPVRIRRDYWGQGTQVTVSS",
    "polyreactivity (PSR sort gate)": "high polyreactivity"
  },
  {
    "seq.string": "QVQLVESCGALVQASGTLRLSCAASGSIFGYNTMRWYRQAPGKERELVAAIYYSGGRTYYADSVKGRFTISRDNAKNTVYLQMNSLKPEDTAVYNCAARKGYRYYYRGQGTQVTVSS",
    "polyreactivity (PSR sort gate)": "high polyreactivity"
  },
  {
    "seq.string": "QVQLVESGGGLVQAGGSLRLSCAASGRILQFYAMGWYRQAPGKERELVATIRVGGGSTYYADSVKGRFTISRDNAKNTVYLQMYSLKPEDTAVYYCAVRQLYSYPGDRRGYYWGQGTQVTVSS",
    "polyreactivity (PSR sort gate)": "low polyreactivity"
  },
  {
    "seq.string": "QVQLVESGGGVVQAGGSLRLSCAASGFIFWLYAMGRYRQAPGKERELVATITYSDGSTYYADSVKGRFTISRDKANNTDYLQMNSLKPEDTAVYYCAAEVYYGYDYWGQGTQVTVSS",
    "polyreactivity (PSR sort gate)": "low polyreactivity"
  },
  {
    "seq.string": "QVQLVESGGGLVQAGGSLRLSCAASGLIFVNDMGLYRQAPGKEREFVAAITYSTGSTYYADSVKGRFTISRDNAKNTVYLQMNSLKPEDTAVYYCAKDRSGHGTERDYWGQGTQVTVSS",
    "polyreactivity (PSR sort gate)": "low polyreactivity"
  },
  {
    "seq.string": "QVQLVESGGGLVQAGGSLRLSCAASGSTFKPYPMGWYRQAPGKERELVADITGGGSTNYADSVKGRFTNSRDNAKNTVYLEMNSLKPEDTGVYYCNATYLLKYRYYDSTRYDYWGQGTQVTVSS",
    "polyreactivity (PSR sort gate)": "low polyreactivity"
  },
  {
    "seq.string": "HVQLVESGGRLVQAGGSLRLSCAASGSIFVPNAMGWYRQAPGKERELVATISWSGGSTYADCVKGRFTISRDNAKNTVYLQMKSLKPEDTAVYYCNARRYDPGSRYDYWGQGTQVTVSS",
    "polyreactivity (PSR sort gate)": "low polyreactivity"
  },
  {
    "seq.string": "QVQLVESGGGLVQAGGSLRLSCAASGRTFGLNAMGWYIQAPGKERELVAAISGSGGRTYYADSVKGRFTISRDNAKNTVYLQMNSLKPEDTAVYYCARVPSGQLEYDYWGQGTQVTVSS",
    "polyreactivity (PSR sort gate)": "high polyreactivity"
  },
  {
    "seq.string": "QVQLVESGGGLVQAGGSLLLSCAASGGTFRNNAMGWYRQAPVKERELVAAISSSGTSTYYADSVKGRFTISRDNVKNTVYLQMNSLKPEDTAVYYCNADALGSPWWDHMDYWGQGTQVTVSS",
    "polyreactivity (PSR sort gate)": "low polyreactivity"
  },
  {
    "seq.string": "QVQLVESGGGLVQAGGSLRLSCAASGSTFRGNTMGWYRQAPGKERELVAVISWSDGHTYYADSVKGRFSSSRDYAKNTGYLQMNSLKPEDPAVYYCAAPDPFYDLDSWGQGTQVTVSS",
    "polyreactivity (PSR sort gate)": "high polyreactivity"
  },
  {
    "seq.string": "QVQLVESGGGLVQAGGSLRLSCASSGRIFGVYAMGWYRQAPGKERELVAAITRGASTYYADSVKGRFTISRDNAKNTVYLQMNSLKPEDTAVYYCAVSQHRGIYRKYDYWGQGTQVTVSS",
    "polyreactivity (PSR sort gate)": "high polyreactivity"
  },
  {
    "seq.string": "QVQLVESGGGLVQAGGSLRLSCAASGLTLAWYAMGWYRQAPGKERELVAAISWSGDSTYYADSVKGRFTISRDNAKNTVYLQMNSLKPEDTAVYYCATRVYGGYGYWGQGTQVTVSS",
    "polyreactivity (PSR sort gate)": "high polyreactivity"
  },
  {
    "seq.string": "QVHHVDSGGGIVKAGGSLRLSCPASGFIFPRNVLGWSRQEPGKERELVAAISRSGGSTYYADSVKGRFTISRDNAKNTVYLPMNSLKPEDTAVYYGGKRTFYNGEFWGQGTQVTVSS",
    "polyreactivity (PSR sort gate)": "low polyreactivity"
  },
  {
    "seq.string": "QVQLVESGGGLVQAGGSLRLSCAASGSTFGNYDIGWYRQAPGKERELVAAISFSGGSTYYADSVKGRFTISRDNAKNTVYLQMNSLIPEDTAVYYCAARSNYRMDYWGQGTQVTVSS",
    "polyreactivity (PSR sort gate)": "high polyreactivity"
  },
  {
    "seq.string": "QVQLVESGGGLVQAGGSLRLSCAASGRIFYRYARGWYRQAPGKEREFVAAITSGTSTNYADSVKGRFTISRDNAKNSLYVQRNSLKPEDTAVYYCATRYYWKYAEYDYWGQGTQVTVSS",
    "polyreactivity (PSR sort gate)": "high polyreactivity"
  },
  {
    "seq.string": "QVQLVESGGGLVQAGGSLRLTSAASGRTFTSNVMGWYSQAPGKEWEVVAAISSSGGRTYYADSVKGRFTISRDNAKNTVYLQMNSLKPEDTAVYYCAGDGDPEYPRYGYWGKGTQVTVSS",
    "polyreactivity (PSR sort gate)": "high polyreactivity"
  },
  {
    "seq.string": "QVQLVESGGGLVQAGGSLRLSCAASGSIFDGYAMGWYRQAPGKEREFVASIRFSTGRTYYADSVKGRFTISRDNAKNSVYLQMNSLKPEDTAGYYCNAPQGFVWRYSSWGPYDYWGQGTQVTVSS",
    "polyreactivity (PSR sort gate)": "high polyreactivity"
  },
  {
    "seq.string": "QVQLVESGGGIVQAGGSLRLSCAASGSTFATYTMGWYRQAPGKERELVAAISSRGGSTYYADSVKGRFTISRDNAKNTVYLQMNSLKPEDTAVYYCNARRSTDPARYYWGQGSQVTVSS",
    "polyreactivity (PSR sort gate)": "high polyreactivity"
  },
  {
    "seq.string": "QVQLVESGGGLVQAGGSLRLSCAASGITFGDNARGWYRQAPGKERELVAAISSGGSTDYADSVKGRFTISRDNAKNTVYLQMNSLKPEDTAVYYCAVDWVSVPEYDYWGQGTQVTVSS",
    "polyreactivity (PSR sort gate)": "low polyreactivity"
  }
]
